The molecules listed here are annotated with their IC50.
- System: HSC-3
- experimental protocol: Antiproliferative activity against human HSC3 cells after 24 hrs by cell titer 96 aqueous non-radioactive cell proliferation assay
- Assay type: functional, cell-based
- condition description: HSC-3, 24 h
measure: IC50 (µM)

molecule | recorded number
Oc1cc2c(cc1O)CN(C(=S)NCCc1ccc(Cl)cc1)CC2 | 20
Oc1cc2c(cc1O)C(c1ccccc1)N(C(=S)NCc1ccccc1)CC2 (configuration not stated) | 2

###

- Tested on: HeLa
- experimental protocol: Antiproliferative activity against human HeLa cells after 24 hrs by cell titer 96 aqueous non-radioactive cell proliferation assay
- Format: functional, cell-based
The compounds listed here are annotated with their IC50.
measure: IC50

compound | result
O=C(NCCc1ccc(Cl)cc1)N1CCc2cc(O)c(O)cc2C1 | 15 µM
CN(CCc1ccc(O)c(O)c1)C(=O)NCCc1ccc(Cl)cc1 | > 30 µM
COc1ccc2c(c1)CCCN(C(=S)NCCc1ccc(Cl)cc1)C2 | > 100 µM
Oc1cc2c(cc1O)CN(C(=S)NCCc1ccccc1)CC2 | 25 µM
COc1ccc(CN(C)C(=O)NCCc2ccc(Cl)cc2)cc1OC | > 30 µM
Oc1cc2c(cc1O)C(c1ccccc1)N(C(=S)NCCc1ccccc1)CC2 (stereo not given) | 25 µM
Oc1cc2c(cc1O)CN(C(=S)NCc1ccccc1)CC2 | > 100 µM
CC(C)C1c2cc(O)c(O)cc2CCN1C(=S)NCCc1ccc(F)cc1 (stereo not given) | 28 µM
COc1cc2c(cc1OC)CN(C(=S)NCCc1ccc(Cl)cc1)CC2 | > 100 µM
CN(Cc1ccc(O)c(O)c1)C(=S)NCCc1ccc(Cl)cc1 | > 100 µM
Oc1cc2c(cc1O)C(c1ccccc1)N(C(=S)NCCc1ccc(F)cc1)CC2 (stereo not given) | 17 µM
Oc1cc2c(cc1O)CN(C(=S)NCCc1ccc(Cl)cc1)C2 | 85 µM
Oc1cc2c(cc1O)CN(C(=S)NCCc1ccc(Cl)cc1)CC2 | < 10 µM
COc1cc2c(cc1OC)CN(C(=O)NCCc1ccc(Cl)cc1)CC2 | > 100 µM
CC(C)C1c2cc(O)c(O)cc2CCN1C(=S)NCCc1ccc(Cl)cc1Cl (stereo not given) | 46 µM
Oc1cc2c(cc1O)CN(C(=S)NCCc1ccc(F)cc1)CC2 | 25 µM
CC(C)C1c2cc(O)c(O)cc2CCN1C(=S)NCCc1ccccc1 (stereo not given) | 67 µM
Oc1cc2c(cc1O)C(c1ccccc1)N(C(=S)NCCc1ccc(Cl)cc1)CC2 (stereo not given) | < 5 µM
Oc1cc2c(cc1O)CN(C(=S)NCCc1ccc(Cl)cc1)CCC2 [CAPSAZEPINE] | 30 µM
Oc1cc2c(cc1O)C(c1ccccc1)N(C(=S)NCc1ccccc1)CC2 (stereo not given) | < 5 µM
